Each entry below carries its recorded GI50.
# Tested on: OVCAR-3
# Procedure summary: NCI DTP antiproliferative screen, ovarian OVCAR-3
# Assay type: cell-based, human
Just the number please, in nM, no unit attached.

COc1cc2cnc3c(c2cc1OC)Cc1c-3cc2c(c1CN(C)CCN(C)C)OCO2 [Compound 14f]	7400
COc1cc2cnc3c(c2cc1OC)Cc1c-3cc2c(c1CN1CCOCC1)OCO2 [Compound 14e]	1700

# ---- query compound ----
Data request: Quote GI50 reported for COc1cc2cnc3c(c2cc1OC)Cc1c-3cc2c(c1Cn1ccnc1)OCO2 [Compound 14c] please.
Data returned: 210

* * *

# Tested on: HOP-62
# Procedure summary: NCI DTP antiproliferative screen, lung HOP-62
# Format: cell-based, human
# Description: The norindenoisoquinolines are examined for antiproliferative activity in the National Cancer Institute's Developmental Therapeutics Program (DTP) (Boyd & Paull, Some Practical Considerations and Applications of the National Cancer Institute In Vitro Anticancer Drug Discovery Screen. Drug Development Res. 1995, 34, 91-109; Shoemaker, The NCI60 Human Tumour Cell Line Anticancer Drug screen. Nat. Rev. Cancer 2006, 6, 813-823). […]
Each entry below carries its recorded GI50.
Just the number please, in nM, no unit attached.

Look over these answered cases.
COc1cc2cnc3c(c2cc1OC)Cc1c-3cc2c(c1Cn1ccnc1)OCO2 [Compound 14c]	350
COc1cc2cnc3c(c2cc1OC)Cc1c-3cc2c(c1CN1CCOCC1)OCO2 [Compound 14e]	2100

Data request: Quote GI50 reported for COc1cc2cnc3c(c2cc1OC)Cc1c-3cc2c(c1CN(C)CCN(C)C)OCO2 [Compound 14f] please.
Data returned: 1500

* * *

Each entry below carries its recorded GI50.
# Tested on: HCT-116
# Procedure summary: NCI DTP antiproliferative screen, colon HCT-116
# Format: cell-based, human
Just the number please, in nM, no unit attached.

Look over these answered cases.
COc1cc2cnc3c(c2cc1OC)Cc1c-3cc2c(c1CN(C)CCN(C)C)OCO2 [Compound 14f]	1900
COc1cc2cnc3c(c2cc1OC)Cc1c-3cc2c(c1CN1CCOCC1)OCO2 [Compound 14e]	1400

# ---- query compound ----
Data request: Quote GI50 reported for COc1cc2cnc3c(c2cc1OC)Cc1c-3cc2c(c1Cn1ccnc1)OCO2 [Compound 14c] please.
Data returned: 160

* * *

# Test system: Human recombinant Top1 (Homo sapiens, UniProt P11387)
# Construct: made in house
# Sequence (P11387 whole entry): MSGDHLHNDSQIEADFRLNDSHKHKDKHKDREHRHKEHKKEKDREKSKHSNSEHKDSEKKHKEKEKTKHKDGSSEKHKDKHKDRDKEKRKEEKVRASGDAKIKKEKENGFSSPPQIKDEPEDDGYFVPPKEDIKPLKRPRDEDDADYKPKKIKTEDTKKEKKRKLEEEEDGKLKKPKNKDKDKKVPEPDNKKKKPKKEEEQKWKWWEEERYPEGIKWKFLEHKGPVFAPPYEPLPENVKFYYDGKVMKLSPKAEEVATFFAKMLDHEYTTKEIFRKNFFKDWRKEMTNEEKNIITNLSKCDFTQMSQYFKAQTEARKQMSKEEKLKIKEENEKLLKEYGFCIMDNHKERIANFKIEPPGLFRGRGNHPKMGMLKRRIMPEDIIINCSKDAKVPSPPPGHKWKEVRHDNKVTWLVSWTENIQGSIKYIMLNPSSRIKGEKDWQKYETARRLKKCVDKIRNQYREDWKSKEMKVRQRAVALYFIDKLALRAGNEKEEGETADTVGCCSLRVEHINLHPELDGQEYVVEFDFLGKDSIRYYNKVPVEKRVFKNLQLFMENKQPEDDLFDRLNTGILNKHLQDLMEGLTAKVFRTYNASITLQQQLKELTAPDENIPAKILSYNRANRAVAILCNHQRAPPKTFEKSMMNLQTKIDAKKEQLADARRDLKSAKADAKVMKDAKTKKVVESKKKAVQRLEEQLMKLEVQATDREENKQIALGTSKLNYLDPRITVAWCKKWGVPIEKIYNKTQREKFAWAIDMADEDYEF
# Procedure summary: Topoisomerase I-mediated DNA cleavage reactions
# Type: biochemical
# Design: key: 0: no activity; +: weak activity; ++: similar activity as CPT; +++ and ++++: greater activity than CPT; ++++: similar activity as 1 uM CPT
# Experimental setup: semiquantitative, relative to 1 uM CPT; concentrations ranging up to 10 uM
# From the text: Norindenoisoquinolines 14a-f are examined for induction of Top1-mediated DNA cleavage using a 117-bp DNA oligonucleotide encompassing the previously identified Top1 cleavage sites in the 161-bp fragment from pBluescript SK(−) phagemid DNA (Dexheimer & Pommier DNA Cleavage Assay for the Identification of Topoisomerase I Inhibitors. Nat. Protocol. 2008, 3, 1736-1750). […]
Measured endpoint: Top1 cleavage

Look over these answered cases.
COc1cc2cnc3c(c2cc1OC)Cc1c-3cc2c(c1CN1CCN(C)CC1)OCO2 [Compound 14d]	++
COc1cc2cnc3c(c2cc1OC)Cc1c-3cc2c(c1CN(C)C)OCO2 [Compound 14a]	+++
COc1cc2cnc3c(c2cc1OC)Cc1c-3cc2c(c1CN1CCCC1)OCO2 [Compound 14b]	+++
CC[C@@]1(O)C(=O)OCc2c1cc1n(c2=O)Cc2cc3ccccc3nc2-1 [CPT, camptothecin, reference compound]	++++

Data request: Quote Top1 cleavage reported for COc1cc2cnc3c(c2cc1OC)Cc1c-3cc2c(c1CN1CCOCC1)OCO2 [Compound 14e] please.
Data returned: +

Data request: Quote Top1 cleavage reported for COc1cc2cnc3c(c2cc1OC)Cc1c-3cc2c(c1C)OCO2 [Compound 15] please.
Data returned: ++
